- Tested on: MOLT-4 leukemia
- run description: NCI-60 one-dose screen, 48 h (100 = growth as untreated, 0 = no growth, -100 = all killed)
- conditions: 10 µM
This is part of a sample that, as a whole, favours compounds with a hit. Of some 83,000 tested, about 20% had one in any assay.
The following compounds are listed with their measured growth values.
Could you give me the number in %? Just the number is fine.

Past entries and their recorded results:
>  <compound>
Cc1ccc2oc(=O)c3c(c2c1)OC(N)=C(C#N)C3c1ccco1 (stereo unspecified)

>  <unit of measure>
%

>  <growth>
107

$$$$
>  <compound>
[Cl][Hg][n]1cnc2c(Cl)c(Cl)c(Cl)cc21

>  <unit of measure>
%

>  <growth>
107

$$$$
>  <compound>
Cc1ccc(C(=O)C2CN(C)CCC2(O)c2ccc(C)cc2)cc1 (stereo unspecified)

>  <unit of measure>
%

>  <growth>
103

$$$$

Query :: Name the recorded growth for O=C(O)c1cccc(CCl)c1 .
Result :: 93.2

Query :: # query: growth of entry CCOC(=O)c1cnc(SCc2ccc(Cl)c(Cl)c2)nc1N1CC1
Result :: 24.5

Query :: Look at this compound and give its reported growth. Oc1c(Br)cc(Br)cc1Br.[Cu+2]
Result :: 92.1

* * *

- Tested on: SN12C renal
- run description: NCI-60 one-dose screen, 48 h
- conditions: 10 µM unless noted
Compounds without any hit were thinned out: in the full panel of roughly 83,000, 20% have a hit. Calls of active or inactive are those of the source. The calls were made as follows: active = growth percent below 10; inactive = the rest.
Return exactly one item of TRUE (active), FALSE (inactive)

Recorded results for 6 molecules are shown here.
>  <molecule>
Nc1ccc(N)c2c1Oc1ccccc1O2

>  <test system>
SN12C renal

>  <class>
FALSE

$$$$
>  <molecule>
C[C@]12CCC(=O)CC1CC[C@@H]1C2CC[C@@]2(C)C1CC[C@@H]2OC(=O)CC[Se][Se]CCC(=O)O[C@H]1CCC2[C@@H]3CCC4CC(=O)CC[C@]4(C)C3CC[C@@]21C (some centres undefined)

>  <test system>
SN12C renal

>  <class>
FALSE

$$$$
>  <molecule>
CCOC(=O)C1(c2ccccc2)CCN(CC(=O)c2ccc(NC(C)=O)cc2)CC1

>  <test system>
SN12C renal

>  <class>
FALSE

$$$$
>  <molecule>
NS(=O)(=O)c1nc[nH]c1[N+](=O)[O-]

>  <test system>
SN12C renal

>  <class>
FALSE

$$$$
>  <molecule>
N#[N+]c1cnc([O-])[nH]c1=O

>  <test system>
SN12C renal

>  <class>
FALSE

$$$$
>  <molecule>
N#[N+]c1nc2nc(N)[nH]c(=O)c2[nH]1

>  <test system>
SN12C renal

>  <class>
FALSE

$$$$

Query :: Hey, what did the test say about COc1cc(C2CC(=O)Nc3nc(N)[se]c32)c(OC)c2c1OCO2 (centres undefined) ?
Result :: FALSE

Query :: What outcome does the record of this test show for CCOC(=O)Nc1cc(Cl)c([N+](=O)[O-])c(NC(=O)OCC)n1 ?
Result :: FALSE

Query :: I would be grateful if you could indicate the recorded call for COC(=O)C[Se]C(=O)c1ccccc1OC(C)=O .
Result :: FALSE

Query :: Test call for this molecule, please: CC1(C)N=C(N)N=C(N)N1c1ccc(CCCCc2ccc(Cl)cc2S(=O)(=O)F)c(Cl)c1
Result :: FALSE

Query :: Could you please tell me the result logged for N#CC(C#N)=Cc1ccc2ccccc2c1 in this assay?
Result :: FALSE

Query :: Any idea what this test logged for C=CCc1ccc(OC(=O)Cc2ccccc2)c(OC)c1 ?
Result :: FALSE

Query :: Outcome? N#Cc1ncc(/N=C/c2ccc(N(CCCl)CCCl)cc2)s1
Result :: FALSE

Query :: Please let me know the test result on file for Nc1ncnc2c1c(C(=O)NO)cn2C1OC(CO)C(O)C1O (centres undefined) .
Result :: TRUE

* * *

- Tested on: COLO 205 colon
- run description: NCI-60 one-dose screen, 48 h (100 = growth as untreated, 0 = no growth, -100 = all killed)
- conditions: 10 µM
About 83,000 compounds went through this panel and 20% of them were active in at least one assay; those are over-represented in the sample as a whole.
measured parameter: growth (%)
Kindly answer with a numeric value in %, unit omitted.

Some solved entries appear below for comparison.
>  <molecule>
CC(=O)C1C(=O)N(C)C(=O)N(C)C1=O

>  <test system>
COLO 205 colon

>  <growth, %>
114

$$$$
>  <molecule>
ClCCN(CCCl)c1nc(Cl)c(C2CC(c3ccc(Cl)cc3)=NN2c2cc(Cl)cc(Cl)c2)s1 (stereo unspecified)

>  <test system>
COLO 205 colon

>  <growth, %>
105

$$$$
>  <molecule>
O=C(O)C1(Br)CC12c1ccccc1-c1ccccc12 (stereo unspecified)

>  <test system>
COLO 205 colon

>  <growth, %>
115

$$$$

Please turn your attention to the following entry.
Query :: Short answer please: growth, COLO 205 colon, entry c1cnc2c(c1)ccc1ncccc12
Result :: 110

* * *

- Tested on: HL-60(TB) leukemia
- run description: NCI-60 one-dose screen, 48 h (100 = growth as untreated, 0 = no growth, -100 = all killed)
- conditions: 10 µM unless noted
The panel holds about 83,000 compounds, 20% with a hit somewhere; the sample as a whole holds those more often.
Each entry below carries its reported growth.
Response body: numeric value in %, unit text excluded.

Some molecules with known growth results, for comparison:
>  <molecule>
Ic1ccc(SSc2ccc(I)cc2)cc1

>  <test system>
HL-60(TB) leukemia

>  <growth [%]>
80.4

$$$$
>  <molecule>
CCOC(=O)n1cc(-c2nonc2-c2cn(C)c3ccc(OC)cc23)c2cc(F)ccc21

>  <test system>
HL-60(TB) leukemia

>  <growth [%]>
99.7

$$$$

Query :: // query growth value for entry O=S(=O)(O)c1ccc(N/N=C/c2ccccc2Cl)cc1
Result :: 101

Query :: Tell me the measured growth of CCCC(F)C(=O)O (stereo unspecified) , please.
Result :: 97.3

Query :: So what's the measured growth for this one? O=C(O)c1c([N+](=O)[O-])cnc2ccccc12
Result :: 92.4

Query :: Suppose we examine the molecule COc1cc(-c2cc(-c3ccc(C)cc3)nc3nc(N)[nH]c(=O)c23)ccc1Oc1ccnc2cc(Cl)ccc12 ; what growth value has been reported?
Result :: 56.2

* * *

- Tested on: SF-539 CNS
- run description: NCI-60 one-dose screen, 48 h
- conditions: 10 µM unless noted
Compounds without any hit were thinned out: in the full panel of roughly 83,000, 20% have a hit. Active and inactive are the calls of the source. The calls were made as follows: active = growth percent below 10; inactive = the rest.
One label from this list, please: active, inactive

>  <molecule>
COc1ccc(NP2(=O)OCC(C)(N)CO2)cc1 (centres undefined)

>  <class>
inactive

$$$$
>  <molecule>
ClCCN(CCCl)c1nc(Cl)c(C2CC(c3ccccc3)=NN2c2ccccc2)s1 (centres undefined)

>  <class>
inactive

$$$$
>  <molecule>
S=P(Nc1ccccc1)(Nc1ccccc1)c1ccccc1

>  <class>
inactive

$$$$
>  <molecule>
O=C(O)CNC(=O)c1ccccc1

>  <class>
inactive

$$$$

Query :: Query: recorded result category for CCC[CH2][Sn]([CH2]CCC)([CH2]CCC)[O]C(=O)CC in this test
Result :: active

Query :: Record request — test call for Oc1ccc(O)c2c1C1(Cl)C(Cl)=C(Cl)C2(Cl)C1(Cl)Cl
Result :: inactive

Query :: Which outcome was entered for the molecule CC(=O)O[C@H]1C[C@H](O[C@H]2[C@@H](O)C[C@H](O[C@H]3[C@@H](O)C[C@H](O[C@H]4CC[C@@]5(C)C(CCC6C5C[C@@H](O)[C@]5(C)[C@@H](C7=CC(=O)OC7)CC[C@]65O)C4)O[C@@H]3C)O[C@@H]2C)O[C@H](C)[C@H]1O[C@@H]1O[C@H](CO)[C@@H](O)[C@H](O)[C@H]1O (some centres undefined) in this test?
Result :: active

Query :: Status in this test for O=C1NC(=O)C(=Cc2cn(Cc3ccccc3)c3ccccc23)C(=O)N1 ?
Result :: inactive

Query :: Hi, do you know how COc1cc(NCCCCCN=C(N)N)c2ncccc2c1 came out in this test?
Result :: inactive

* * *

- System: HL-60(TB) leukemia
- run description: NCI-60 one-dose screen, 48 h
- conditions: 10 µM unless noted
Compounds without any hit were thinned out: in the full panel of roughly 83,000, 20% have a hit. The source made the active and inactive calls. The calls were made as follows: active = growth percent below 10; inactive = the rest.
# valid calls are active, inactive; nothing else

Past entries and their recorded results:
>  <molecule>
Nc1ccc(Br)cc1C(F)(F)F

>  <class>
inactive

$$$$
>  <molecule>
COc1ccc(/C=C/C(=O)c2cc3c(N)c(C(=O)Nc4ccccc4Cl)sc3nc2C)cc1

>  <class>
active

$$$$
>  <molecule>
CC/C=C\C/C=C/C=C1/C(=O)C=C[C@@H]1C/C=C\CCCC(=O)OC

>  <class>
active

$$$$
>  <molecule>
OC(COc1cccc2ccccc12)CN1CCN(c2ccccc2)CC1 (stereo unspecified)

>  <class>
inactive

$$$$
>  <molecule>
C#CCOc1ccc2ncnc(NCc3cccc(NC(=O)CCl)c3)c2c1

>  <class>
inactive

$$$$

Consider the additional molecule presented here.
Query :: Given C=C1C(=O)O[C@H]2[C@H]1CC/C(CNC(=O)Cc1c[nH]c3ccccc13)=C\CC[C@@]1(C)O[C@@H]21 , state the outcome it received in this test.
Result :: active
